B1: OAS1 (parent)
chain: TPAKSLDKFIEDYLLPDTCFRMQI

# Variants of: B1
# measurement.protocol: protein stability index of a GFP-peptide fusion (GPS, HEK-293T) (PSI 1-6); higher = more stable;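 note: lentivirally expressed fusions sorted by FACS into six bins by GFP to DsRed ratio, PSI derived from sequencing read proportions per bin multiplied by bin number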
# protocol.conditions: c terminus: a fixed tail appended
quantity.kind: protein stability index

{"record.sequence": "TPAKSLDKFIEDYLLPDTCFRMWI [Q23W]", "quantity.kind": "protein stability index", "recorded.value": 3.07}
{"record.sequence": "TPAKSLDKFIEDYLLPDTCERMQI [F20E]", "quantity.kind": "protein stability index", "recorded.value": 1.97}
{"record.sequence": "TPAKSLDKFIEDYTLPDTCFRMQI [L14T]", "quantity.kind": "protein stability index", "recorded.value": 2.05}
{"record.sequence": "TPAKSLDKFIEDYLEPDTCFRMQI [L15E]", "quantity.kind": "protein stability index", "recorded.value": 3.04}
{"record.sequence": "TPAKSLDLFIEDYLLPDTCFRMQI [K8L]", "quantity.kind": "protein stability index", "recorded.value": 3.06}
{"record.sequence": "TPAKSLDKTIEDYLLPDTCFRMQI [F9T]", "quantity.kind": "protein stability index", "recorded.value": 2.95}
{"record.sequence": "TPAKVLDKFIEDYLLPDTCFRMQI [S5V]", "quantity.kind": "protein stability index", "recorded.value": 3.06}
{"record.sequence": "TPHKSLDKFIEDYLLPDTCFRMQI [A3H]", "quantity.kind": "protein stability index", "recorded.value": 2.99}
{"record.sequence": "TFAKSLDKFIEDYLLPDTCFRMQI [P2F]", "quantity.kind": "protein stability index", "recorded.value": 3.08}

Each recorded value in this set is attributed to the supplement of paper PMC10567573.
